# test-method-notes: Partition coefficient of the compound, log P
# Assay type: physicochemical
# condition-set: octanol/water

{"chemical-structure": "CCCCOCCOc1nc(-c2ccc(C(=O)O)c(F)c2)sc1C", "logP": 5.1}

###

Listed next: entries and their corresponding EC50.
# study-system: Retinoic acid receptor beta (Homo sapiens, UniProt P10826)
# test-method-notes: Transcriptional activity against RARbeta2
# Format: functional

{"chemical-structure": "CCCCCCCCc1ccc(-c2ccc(C(=O)O)cc2)cc1", "EC50, nM": 126}
{"chemical-structure": "CCCCCc1ccc(-c2ccc(C(=O)O)cc2)cc1", "EC50, nM": 15.8}
{"chemical-structure": "CCCCc1ccc(-c2ccc(C(=O)O)cc2)cc1", "EC50, nM": 63.1}
{"chemical-structure": "CCCCCCc1ccc(-c2ccc(C(=O)O)cc2)cc1", "EC50, nM": 50.1}
{"chemical-structure": "CCCCCCCc1ccc(-c2ccc(C(=O)O)cc2)cc1", "EC50, nM": 25.1}
{"chemical-structure": "CCCCCCCCCc1ccc(-c2ccc(C(=O)O)cc2)cc1", "EC50, nM": 15.8}

###

# test-method-notes: Solubility at pH 7.4
# Format: physicochemical
# condition-set: buffer
Listed next: entries and their corresponding solubility.

{"chemical-structure": "CCCCCCCCc1ccc(-c2ccc(C(=O)O)cc2)cc1", "result-modifier": "<", "solubility, µg/mL": 1}
{"chemical-structure": "CCCCOCCOc1nc(-c2ccc(C(=O)O)c(F)c2)sc1C", "result-modifier": "=", "solubility, µg/mL": 4800}

###

# study-system: Retinoic acid receptor beta (Homo sapiens) (UniProt P10826)
# Sequence (whole entry): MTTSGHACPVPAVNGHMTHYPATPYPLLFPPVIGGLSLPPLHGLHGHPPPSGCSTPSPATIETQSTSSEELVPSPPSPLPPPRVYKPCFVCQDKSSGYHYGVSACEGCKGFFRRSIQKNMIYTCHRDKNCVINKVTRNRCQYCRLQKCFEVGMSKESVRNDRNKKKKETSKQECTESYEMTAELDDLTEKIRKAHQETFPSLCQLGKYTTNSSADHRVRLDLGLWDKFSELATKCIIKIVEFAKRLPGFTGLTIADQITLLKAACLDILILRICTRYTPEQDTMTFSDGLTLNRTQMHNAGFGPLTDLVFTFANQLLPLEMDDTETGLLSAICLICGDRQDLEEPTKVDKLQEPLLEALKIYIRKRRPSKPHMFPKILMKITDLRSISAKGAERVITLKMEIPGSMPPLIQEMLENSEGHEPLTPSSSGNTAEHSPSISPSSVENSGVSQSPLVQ
# test-method-notes: Efficacy against RARbeta2
Calls of active or inactive are those of the source. The calls are words filed in the database; no cut-off is given here.

{"chemical-structure": "CCc1ccc(-c2ccc(C(=O)O)cc2)cc1", "Efficacy": "inactive"}
{"chemical-structure": "CCCCCCCc1ccc(-c2ccc(C(=O)O)cc2)cc1", "Efficacy": "64%"}
{"chemical-structure": "CCCCCCCCc1ccc(-c2ccc(C(=O)O)cc2)cc1", "Efficacy": "92%"}
{"chemical-structure": "CCCCCc1ccc(-c2ccc(C(=O)O)cc2)cc1", "Efficacy": "38%"}
{"chemical-structure": "CC1(C)CCC(C)(C)c2cc(C(=O)Nc3ccc(C(=O)O)cc3)ccc21", "Efficacy": "100%"}
{"chemical-structure": "CCCCc1ccc(-c2ccc(C(=O)O)cc2)cc1", "Efficacy": "36%"}
{"chemical-structure": "CCCCCCc1ccc(-c2ccc(C(=O)O)cc2)cc1", "Efficacy": "37%"}
{"chemical-structure": "CCCc1ccc(-c2ccc(C(=O)O)cc2)cc1", "Efficacy": "inactive"}
{"chemical-structure": "CCCCCCCCCc1ccc(-c2ccc(C(=O)O)cc2)cc1", "Efficacy": "100%"}
{"chemical-structure": "CCCCOCCOc1nc(-c2ccc(C(=O)O)c(F)c2)sc1C", "Efficacy": "96%"}

###

# study-system: Retinoic acid receptor beta (Homo sapiens)
# Sequence (whole entry): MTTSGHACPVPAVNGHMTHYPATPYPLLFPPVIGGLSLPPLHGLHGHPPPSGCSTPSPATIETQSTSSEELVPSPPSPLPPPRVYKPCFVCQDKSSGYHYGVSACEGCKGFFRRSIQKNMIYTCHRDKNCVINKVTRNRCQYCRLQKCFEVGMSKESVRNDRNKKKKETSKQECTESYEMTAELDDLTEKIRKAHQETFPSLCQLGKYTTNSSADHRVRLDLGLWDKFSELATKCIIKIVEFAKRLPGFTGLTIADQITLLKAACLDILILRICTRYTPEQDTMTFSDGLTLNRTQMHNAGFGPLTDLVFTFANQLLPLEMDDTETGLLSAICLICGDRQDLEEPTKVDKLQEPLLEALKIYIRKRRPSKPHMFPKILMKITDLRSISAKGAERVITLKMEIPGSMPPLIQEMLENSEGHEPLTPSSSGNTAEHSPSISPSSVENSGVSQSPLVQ
# test-method-notes: Efficacy against RARbeta1
Calls of active or inactive are those of the source. The rule behind the calls is not given here.
result-type: Efficacy

{"chemical-structure": "CCCCCCCc1ccc(-c2ccc(C(=O)O)cc2)cc1", "study-system": "Retinoic acid receptor beta (Homo sapiens)", "result-type": "Efficacy", "result": "inactive"}
{"chemical-structure": "CCCCCc1ccc(-c2ccc(C(=O)O)cc2)cc1", "study-system": "Retinoic acid receptor beta (Homo sapiens)", "result-type": "Efficacy", "result": "inactive"}
{"chemical-structure": "CCCCOCCOc1nc(-c2ccc(C(=O)O)c(F)c2)sc1C", "study-system": "Retinoic acid receptor beta (Homo sapiens)", "result-type": "Efficacy", "result": "40%"}
